tested on: tet-on competent MLL/AF9+Nras AML; assay: Pooled negative selection RNAi screening (deep sequencing); assay type: cell-based, mouse; conditions: deep sequencing reads, On Dox compared to T0

[
  {
    "MOLECULE": "Fas.1344: shRNA, SEQ ID NO: 118 (nucleic acid) TGCTGTTGACAGTGAGCGCGAGGAGAATTATAAACTGAAATAGTGAAGCCACAGATGTATTTCAGTTTATAATTCTCCTCATGCCTACTGCCTCGGA",
    "UNITS SYMBOL": "Fold",
    "Fold depletion in AML": 8.57
  },
  {
    "MOLECULE": "Gdi1.2355: shRNA, SEQ ID NO: 130 (nucleic acid) TGCTGTTGACAGTGAGCGACTCTAGTATATTTCACAGAAATAGTGAAGCCACAGATGTATTTCTGTGAAATATACTAGAGCTGCCTACTGCCTCGGA",
    "UNITS SYMBOL": "Fold",
    "Fold depletion in AML": 9.92
  },
  {
    "MOLECULE": "Ptgs2.2058: neutral control shRNA, SEQ ID NO: 210 (nucleic acid) TGCTGTTGACAGTGAGCGCCCGGTGTTTGTCCTTTAAATATAGTGAAGCCACAGATGTATATTTAAAGGACAAACACCGGATGCCTACTGCCTCGGA",
    "UNITS SYMBOL": "Fold",
    "Fold depletion in AML": 1.78
  },
  {
    "MOLECULE": "Pcna.566: shRNA, SEQ ID NO: 160 (nucleic acid) TGCTGTTGACAGTGAGCGATCGGGTGAATTTGCACGTATATAGTGAAGCCACAGATGTATATACGTGCAAATTCACCCGACTGCCTACTGCCTCGGA",
    "UNITS SYMBOL": "Fold",
    "Fold depletion in AML": 9.89
  }
]
